Tested on: SF-295 CNS
Experiment: NCI tumour cell line growth inhibition, 48 h
Use 10 µM as the dividing line for TGI, with the line itself on the T side and lower values as F.

Please review the following examples before continuing.
CCOC(=O)/C=C1/Nc2cc(F)c(F)cc2NC1=O
T
S=C1CSc2c(cnc3ccccc23)N1
T
CCC(C)CC(CC)NCCN1CCN(C(CC)CC(C)CC)C1=S (stereo unspecified)
F
O=C(Nc1cccc(C(F)(F)F)c1)c1cc(-c2ccccc2)nc(=S)[nH]1
T
CCOC(=O)c1cnc2c(cnn2CC)c1NN=C(C)C
T
CN1CCN(c2cc(Nc3cc(C4CC4)[nH]n3)nc(Nc3ccc(CC(=O)NCc4cccc(F)c4)cc3)n2)CC1
T
CC1(CO)C(=O)OC12CCCCC2 (stereo unspecified)
T
O=C1C(CN2CCCC2)CCCC1CN1CCCC1 (stereo unspecified)
T

Is TGI at least 10 µM? Consider Clc1ccc(-c2cn(-c3ccccc3)c(-c3ccccc3)n2)c(Cl)c1 F

I'd appreciate it if you could say whether C=C1C(=O)O[C@H]2[C@H]1CC/C(COC(=O)C(=O)c1cn(C)c3ccc(OC)cc13)=C\CC[C@@]1(C)O[C@@H]21 has TGI at least equal to 10 µM. T

Exam item: decide whether the reported TGI for COc1cccc2c(Nc3ccc(C(=O)NCCN(C)C)cc3)cc(-c3ccccc3)nc12 is at least 10 µM. T

###

Tested on: NCI-H460 lung
Assay: NCI tumour cell line growth inhibition, 48 h
This section presents compounds with their documented log10 TGI values.
In our notation, the value equals log10 of TGI in µM.

Please review the following examples before continuing.
Cc1nc2ccccc2cc1C[N+]12CN3CN(CN(C3)C1)C2
1.65
CCc1nc(N)nc(N)c1-c1ccc(Cl)c(N=NN(C)C)c1
1.61
Cc1ccc(CC(=O)Nc2ccc(NC(=O)CNC(=O)/C=C/c3ccc(-c4ccccc4)cc3)cc2C(=O)c2ccccc2)cc1
1.05
COC(=O)c1cc2c(cc1Cl)SC(N(N(C)C)S(=O)(=O)c1ccc(Cl)cc1)=NS2(=O)=O
1.57
CCC(C)CC(CC)NCCN1CCN(C(CC)CC(C)CC)C1=S (configuration not stated)
0.61
CC(C)[C@@H](CS(=O)(=O)C(C)C)N1C(=O)[C@@](C)(CC(=O)O)C[C@H](c2cccc(Cl)c2)[C@H]1c1ccc(Cl)cc1
1.18

Fill in the blank: the reported log10 TGI of COC(=O)C(N)CCCC(N)C(=O)NC(C)C(=O)NC(CCC(=O)NCCCNc1ccc([N+](=O)[O-])c2[nH]c3ccccc3c(=O)c12)C(N)=O (configuration not stated) is ____. 1.24

# get_value(readout='log10 TGI', item= O=C1C(=O)c2c(nc3ncccn23)-c2ccccc21 ) -0.28

Returns the measured log10 TGI for the input compound. Input: C=C1[C@H](OCC(C)C)[C@@H](OC(=O)C(C)CC)[C@@H](O)C(C)(C)/C=C/[C@H](C)C(=O)[C@@]2(O)C[C@H](C)[C@H](O)[C@@H]2[C@H]1OC(=O)C(C)CC (some centres not stated) 0.91

###

Test system: IGROV1 ovarian
Assay: NCI tumour cell line growth inhibition, 48 h; in the data active = GI50 below about 0.43 µM; inactive = the rest
// one of TRUE = active, FALSE = inactive, no free text

// below: answered compounds
COc1cc2c3c(n(C)c(=O)c2cc1OC)-c1cc2c(cc1/C3=C\[C@@H](N)CCCCN)OCO2
FALSE
CCCCC#Cc1cccc(=O)o1
FALSE
Clc1ccc(-c2cn(-c3ccccc3)c(-c3ccccc3)n2)c(Cl)c1
FALSE
C[C@@]12CCC[C@@](C)(C(=O)O)C1CC[C@@]13CC(=O)[C@@](CO)(CCC12)C3 (stereo not given in full)
FALSE
Cc1ccccc1NC(=O)c1sc2nc3c(cc2c1N)C(=O)CCC3
FALSE
CC(C)(C)n1cc(-c2ccnc(NCCNS(=O)(=O)c3cccc4ccccc34)c2)c(-c2cccc(F)c2)n1
FALSE

I'd appreciate the recorded outcome for C=C1CO[C@@H]2C[C@@H]1CCC1(C)OC1CC/C(C)=C/CC[C@@]2(C)O (stereo not given in full) from this test. FALSE

Please let me know the test result on file for COC(=O)[C@]12CC[C@@H](C)[C@H](C)[C@@H]1C1=CC[C@@H]3[C@@]4(C)C=C(O)C(=O)C(C)=C4CC[C@@]3(C)[C@]1(C)CC2 . FALSE

Any idea what this test logged for COC(=O)c1cc2c(cc1Cl)SC(N(N(C)C)S(=O)(=O)c1ccc(Cl)cc1)=NS2(=O)=O ? FALSE

Tell me the assay call for C1C[OH+]CC[OH+]CC[OH+]CC[OH+]CC[OH+]CC[OH+]1.[Cl-].[Ta+5] please. FALSE

Lab log entry: Cc1[nH]nc(C(=O)Nc2n[nH]c3ccccc23)c1[N+](=O)[O-] — outcome as called in the assay? FALSE

So what was the verdict on COc1ccc(/C=C/C(c2cc(OC)c(OC)c(OC)c2)n2cncn2)cc1O (stereo not given) in this test? FALSE

Write down the call the test reported for this compound. Item: Nc1nc(Nc2ccc3c(c2)CCC(N2CCCC2)CC3)nn1-c1cc2c(nn1)-c1ccccc1CCC2 (stereo not given) FALSE

Dear all, I need the recorded test outcome for C=C1C(=O)O[C@H]2[C@H]1CC(=O)/C(C)=C\CC[C@@]1(C)O[C@@H]21 , thank you. FALSE

What was the test verdict on COc1ccc(-c2c(C#N)c(N)nc3c2CCCc2ccc(F)cc2-3)cc1OC ? TRUE

Recorded call for Clc1ccc(Nc2nc3ccccc3c3occc23)cc1 ? FALSE

Tell me the recorded outcome of this test for COc1ccc(-c2nn(-c3cccc(NC(=O)Nc4cccc(C(F)(F)F)c4)c3)cc2-c2ccncc2)cc1Cl . FALSE
